TEST_SYSTEM: LAT1 (Homo sapiens (Human), UniProt Q01650)
Sequence (Q01650 whole entry): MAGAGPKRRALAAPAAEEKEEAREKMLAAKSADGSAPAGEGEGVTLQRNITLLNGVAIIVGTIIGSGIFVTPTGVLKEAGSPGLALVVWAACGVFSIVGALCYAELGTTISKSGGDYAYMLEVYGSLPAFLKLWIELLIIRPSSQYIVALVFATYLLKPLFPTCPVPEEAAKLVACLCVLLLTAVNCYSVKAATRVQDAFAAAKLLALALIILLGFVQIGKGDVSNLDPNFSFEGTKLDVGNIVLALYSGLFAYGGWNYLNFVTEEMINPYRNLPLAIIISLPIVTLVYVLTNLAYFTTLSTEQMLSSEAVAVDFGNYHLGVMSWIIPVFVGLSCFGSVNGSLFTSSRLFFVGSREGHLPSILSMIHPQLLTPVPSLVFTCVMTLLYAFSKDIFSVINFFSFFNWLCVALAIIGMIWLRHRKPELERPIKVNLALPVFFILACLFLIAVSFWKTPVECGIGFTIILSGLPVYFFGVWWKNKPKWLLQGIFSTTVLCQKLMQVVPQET
Sequence (P08195 whole entry partner): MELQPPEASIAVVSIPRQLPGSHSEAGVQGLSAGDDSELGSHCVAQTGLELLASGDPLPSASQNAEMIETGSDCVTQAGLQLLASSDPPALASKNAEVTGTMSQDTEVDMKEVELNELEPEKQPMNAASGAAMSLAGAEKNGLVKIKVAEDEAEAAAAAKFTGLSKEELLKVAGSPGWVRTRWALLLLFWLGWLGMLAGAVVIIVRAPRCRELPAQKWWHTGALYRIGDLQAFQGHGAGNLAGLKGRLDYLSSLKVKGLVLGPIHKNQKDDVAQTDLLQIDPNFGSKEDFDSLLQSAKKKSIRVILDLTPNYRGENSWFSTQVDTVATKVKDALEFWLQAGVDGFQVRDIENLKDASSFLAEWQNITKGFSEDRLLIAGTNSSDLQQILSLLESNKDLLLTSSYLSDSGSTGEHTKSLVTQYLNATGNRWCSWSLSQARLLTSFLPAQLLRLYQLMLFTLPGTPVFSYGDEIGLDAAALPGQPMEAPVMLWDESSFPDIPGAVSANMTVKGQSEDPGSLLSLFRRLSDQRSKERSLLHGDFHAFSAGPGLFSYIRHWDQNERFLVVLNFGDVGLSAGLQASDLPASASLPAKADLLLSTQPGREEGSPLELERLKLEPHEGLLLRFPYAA
TEST_NAME: LAT1 uptake inhibition assay: [3H]-gabapentin competition uptake in LN229 cells
Format: cell-based
CONDITION_LABEL: [3H]-gabapentin uptake, 15 min incubation in PBS, read-out: IC50, the concentration of test compound at which the [3H]-GP uptake was inhibited by 50%
Protocol: LAT1 Uptake Inhibition Assay The ability of compounds to interact with LAT1 was measured using a radiolabeled competition uptake assay with [^3H]-Gabapentin ([^3H]-GP) (Perkin Elmer) in 96-well plates with LN229 cells (ATCC®). […] One-hundred fifty (150) […] of scintillation fluid (VWR International) was added to each well, and the radioactivity retained within the cells was measured on a 96-well scintillation counter. […]
pIC50: −log10 of the molar value.
I'd appreciate it if you could supply pIC50 values for the items below.

SMILES_CODE	pIC50
CS(=O)(=O)Nc1ccc(C[C@H](N)C(=O)O)cc1	≤ 5.00
Cc1ccc(S(=O)(=O)NC2CCCCC2)cc1C[C@H](N)C(=O)O	7.00 to 7.70
Cc1ccc(S(=O)(=O)Nc2ccc(Cl)cc2)cc1C[C@H](N)C(=O)O	≥ 7.70
Cc1ccc(S(=O)(=O)N(c2ccc(C)c(C[C@H](N)C(=O)O)c2)S(=O)(=O)c2ccc(C)cc2)cc1	6.00 to 7.00

Quick one: give me pIC50 for each item below, same order please.
1. CS(=O)(=O)Nc1ccccc1C[C@H](N)C(=O)O
2. Cc1ccc(NS(=O)(=O)C(C)C)cc1C[C@H](N)C(=O)O
3. COc1ccc(NS(=O)(=O)c2ccc(C)c(C[C@H](N)C(=O)O)c2)cc1
4. Cc1ccc(CSCc2ccccc2)cc1C[C@H](N)C(=O)O
5. CCCCNS(=O)(=O)c1ccc(C)c(C[C@H](N)C(=O)O)c1
6. CN(C)c1cccc2c(S(=O)(=O)Nc3ccc(Cl)c(C[C@H](N)C(=O)O)c3)cccc12
7. Cc1ccc(S(=O)(=O)Nc2cc(C[C@H](N)C(=O)O)cc(NS(=O)(=O)c3ccc(C)cc3)c2)cc1
8. Cc1ccc(S(=O)(=O)NCc2ccc(C)c(C[C@H](N)C(=O)O)c2)cc1

# output
1. ≤ 5.00
2. 5.00 to 6.00
3. ≥ 7.70
4. 6.00 to 7.00
5. 7.00 to 7.70
6. 6.00 to 7.00
7. 5.00 to 6.00
8. 6.00 to 7.00

Quick one: give me pIC50 for each item below, same order please.
1. Cc1ccc(S(=O)(=O)Nc2cccc3ccccc23)cc1C[C@H](N)C(=O)O
2. CS(=O)(=O)Nc1cc(C[C@H](N)C(=O)O)cc(NS(C)(=O)=O)c1
3. Cc1ccc(S(=O)(=O)Nc2cccc3ncccc23)cc1C[C@H](N)C(=O)O
4. Cc1ccc(NS(=O)(=O)Cc2ccccc2)cc1C[C@H](N)C(=O)O
5. Cc1ccc(CNS(=O)(=O)c2ccccc2)cc1C[C@H](N)C(=O)O
6. Cc1ccc(NS(=O)(=O)c2c[nH]cn2)cc1C[C@H](N)C(=O)O

# output
["7.00 to 7.70", "≤ 5.00", "6.00 to 7.00", "6.00 to 7.00", "6.00 to 7.00", "≤ 5.00"]

---

TEST_SYSTEM: LAT1 (Homo sapiens (Human))
TEST_NAME: LAT1 uptake inhibition assay: [3H]-gabapentin competition uptake in LN229 cells
Type: cell-based
CONDITION_LABEL: [3H]-gabapentin uptake, 15 min incubation in PBS, read-out: IC50, the concentration of test compound at which the [3H]-GP uptake was inhibited by 50%
I'd appreciate it if you could supply IC50 values for the items below.

Some solved cases for reference:
SMILES_CODE	IC50
CS(=O)(=O)Nc1cccc(C[C@H](N)C(=O)O)c1	≥ 10000 nM
COc1ccc(NS(=O)(=O)c2cccc3c(N(C)C)cccc23)cc1C[C@H](N)C(=O)O	100 to 1000 nM
Cc1ccc(NS(C)(=O)=O)cc1C[C@H](N)C(=O)O	≥ 10000 nM
Cc1ccc(NS(=O)(=O)c2cn(C)c(C)n2)cc1C[C@H](N)C(=O)O	≥ 10000 nM

Quick one: give me IC50 for each item below, same order please.
1. Cc1ccc(S(=O)(=O)Cc2ccccc2)cc1C[C@H](N)C(=O)O
2. N[C@@H](Cc1ccc(S(N)(=O)=O)cc1)C(=O)O
3. Cc1ccc(NS(=O)(=O)c2cccc3c(N(C)C)cccc23)cc1C[C@H](N)C(=O)O
4. CN(C)c1cccc2c(S(=O)(=O)Nc3ccc(C[C@H](N)C(=O)O)cc3)cccc12

# output
100 to 1000 nM
≥ 10000 nM
100 to 1000 nM
1000 to 10000 nM

# input I'd like to know its IC50. The compound in question is N[C@@H](Cc1cccc(S(=O)(=O)N2CCCCC2)c1)C(=O)O
# output 1000 to 10000 nM
